details: in DMF, 308.15 K
Observable: solubility (mole fraction)
Give the figure only, with no unit attached.

What does the data say about its solubility (mole fraction)? Entry: `CO/N=C(\C(=O)N[C@@H]1C(=O)N2C(C(=O)[O-])=C(COC(C)=O)CS[C@H]12)c1csc(N)n1.[Na+]`
0.0845

----------
settings: in formamide, 295.15 K
Observable: solubility (mole fraction)

Requested field: solubility (mole fraction). Item: `CO/N=C(\C(=O)N[C@@H]1C(=O)N2C(C(=O)[O-])=C(COC(C)=O)CS[C@H]12)c1csc(N)n1.[Na+]`
0.0652

----------
settings: in DMSO, 302.15 K
Observable: solubility (mole fraction)

If you can, please state the reported solubility (mole fraction) value of `CO/N=C(\C(=O)N[C@@H]1C(=O)N2C(C(=O)[O-])=C(COC(C)=O)CS[C@H]12)c1csc(N)n1.[Na+]` .
0.0777
